# test.protocol: Steady state oral/IV rat PK and compound penetration into spine and brain (Example 16)
# Assay type: in vivo, Sprague-Dawley rats
# reported.conditions: male, Sprague-Dawley, rat, brain; Day 3, five hours after dosing, 40 mg/kg PO once per day; read-out: Brain
measurement.type: concentration at 5 h (ng/mL)

1) [2H]C([2H])([2H])c1ccc(C#Cc2ccc(S(=O)(=O)N[C@H](Cc3c[nH]c4ccccc34)C(=O)O)s2)cc1 : 84.6

====

# test.protocol: Steady state oral/IV rat PK and compound penetration into spine and brain (Example 16)
# Type: in vivo, Sprague-Dawley rats
# reported.conditions: male, Sprague-Dawley, rat, plasma, po, 10 mg/kg, DAY 3, 10 mg/kg PO once per day, plasma
measurement.type: half-life (h)

1. [2H]C([2H])([2H])c1ccc(C#Cc2ccc(S(=O)(=O)N[C@H](Cc3c[nH]c4ccccc34)C(=O)O)s2)cc1 [Compound 118] : 1.59
